Just for reference, the supplement of paper PMC9112550 is where these values come from.

System: Escherichia coli TOP10
Test: shrunken log2 fold change of peptide-encoding DNA abundance (4.5 h post-induction vs induction); higher = less antimicrobial activity (less host growth inhibition)
Settings: time post-induction: 4.5 h; library: site-saturation at positions 5, 18, 19, 20
For each record, write down the corresponding shrunken log2 fold change.

Here are 5 sequences together with their reported answers.
sequence	assay-metric	experimental-result
RRIRHRPPRLPRPRPRPFTEPRP	shrunken log2 fold change	0.00246
RRIRFRPPRLPRPRPRPKYHPRP	shrunken log2 fold change	-0.428
RRIRGRPPRLPRPRPRPDTPPRP	shrunken log2 fold change	0.799
RRIRLRPPRLPRPRPRPHIMPRP	shrunken log2 fold change	-0.531
RRIRDRPPRLPRPRPRPQKTPRP	shrunken log2 fold change	-0.253

I would be grateful if you could provide shrunken log2 fold change for each of the following entries.
1. RRIRQRPPRLPRPRPRPHQTPRP
2. RRIRIRPPRLPRPRPRPPIIPRP
3. RRIRWRPPRLPRPRPRPFNNPRP
4. RRIRGRPPRLPRPRPRPSKVPRP
5. RRIRVRPPRLPRPRPRPVSAPRP
6. RRIRKRPPRLPRPRPRPFCYPRP

(A)
1. -0.0333
2. -0.0124
3. -0.494
4. -0.116
5. -0.141
6. -0.14

Would you mind giving shrunken log2 fold change for every sequence in the list below?
1. RRIRFRPPRLPRPRPRPHKKPRP
2. RRIRKRPPRLPRPRPRPNYSPRP
3. RRIRQRPPRLPRPRPRPLQQPRP

(A)
1. -0.369
2. -0.0472
3. -0.123

====

Record form. Attribute: shrunken log2 fold change. Fill in for each entry.
Tested on: Escherichia coli TOP10
Assay: shrunken log2 fold change of peptide-encoding DNA abundance (4.5 h post-induction vs induction); higher = less antimicrobial activity (less host growth inhibition)
Conditions: time post-induction: 4.5 h; library: site-saturation at positions 5, 18, 19, 20
Numbers only.

Would you please look over these solved cases?
sequence	shrunken log2 fold change
RRIRPRPPRLPRPRPRPYVHPRP	-0.356
RRIRSRPPRLPRPRPRPTAGPRP	0.679
RRIRRRPPRLPRPRPRPADSPRP	-0.0331
RRIRARPPRLPRPRPRPPILPRP	-0.261
RRIRVRPPRLPRPRPRPLYCPRP	-0.596
RRIRQRPPRLPRPRPRPYQVPRP	-0.0417
RRIRGRPPRLPRPRPRPLKWPRP	0.367
RRIRDRPPRLPRPRPRPKWFPRP	-0.0316

Provide the reported shrunken log2 fold change of each entry below, same order.
1. RRIRTRPPRLPRPRPRPFDVPRP
2. RRIRHRPPRLPRPRPRPADGPRP
3. RRIRHRPPRLPRPRPRPHKMPRP
4. RRIRERPPRLPRPRPRPPRDPRP
5. RRIRMRPPRLPRPRPRPQQDPRP
6. RRIRDRPPRLPRPRPRPPAGPRP
7. RRIRPRPPRLPRPRPRPFVEPRP

(A)
[-0.243, -0.279, -0.266, 0.226, 0.741, 0.418, -0.0706]

====

Tested on: Escherichia coli TOP10
Experiment: shrunken log2 fold change of peptide-encoding DNA abundance (4.5 h post-induction vs induction); higher = less antimicrobial activity (less host growth inhibition)
Conditions: time post-induction: 4.5 h; library: site-saturation at positions 5, 18, 19, 20
Assign shrunken log2 fold change to each entry below.

sequence	experimental-result
RRIRFRPPRLPRPRPRPDDIPRP	-0.0253
RRIRMRPPRLPRPRPRPLSYPRP	0.134
RRIRVRPPRLPRPRPRPETKPRP	0.242
RRIRKRPPRLPRPRPRPIIRPRP	-0.59
RRIRARPPRLPRPRPRPPCQPRP	0.438
RRIRLRPPRLPRPRPRPFNLPRP	-0.596
RRIRDRPPRLPRPRPRPMPCPRP	0.000981
RRIRHRPPRLPRPRPRPWFYPRP	-0.244
RRIRTRPPRLPRPRPRPEHEPRP	-0.109
RRIRWRPPRLPRPRPRPAIEPRP	-0.04

I would be grateful if you could provide shrunken log2 fold change for each of the following entries.
1. RRIRLRPPRLPRPRPRPDYLPRP
2. RRIRARPPRLPRPRPRPMAQPRP
3. RRIRSRPPRLPRPRPRPILDPRP
4. RRIRYRPPRLPRPRPRPWKAPRP

(A)
[-0.114, 0.23, -0.152, -0.0135]

====

Test system: Escherichia coli TOP10
Assay: shrunken log2 fold change of peptide-encoding DNA abundance (4.5 h post-induction vs induction); higher = less antimicrobial activity (less host growth inhibition)
Details: time post-induction: 4.5 h; library: site-saturation at positions 5, 18, 19, 20
Response key: criterion met means shrunken log2 fold change >= -0.1; criterion not met means shrunken log2 fold change < -0.1.

sequence	class-assignment
RRIRRRPPRLPRPRPRPPDPPRP	criterion met
RRIRIRPPRLPRPRPRPVQIPRP	criterion met
RRIRNRPPRLPRPRPRPYRSPRP	criterion met
RRIRERPPRLPRPRPRPVVDPRP	criterion met
RRIRSRPPRLPRPRPRPLTYPRP	criterion not met

(Q) Entry "RRIRARPPRLPRPRPRPHRMPRP" : is its shrunken log2 fold change no less than -0.1?
(A) criterion met

(Q) I'd appreciate it if you could say whether "RRIRTRPPRLPRPRPRPHLMPRP" has shrunken log2 fold change at least equal to -0.1.
(A) criterion not met

(Q) Could you verify whether the entry "RRIRRRPPRLPRPRPRPSELPRP" shows shrunken log2 fold change of no less than -0.1?
(A) criterion met

(Q) Hello, I need to know if "RRIRWRPPRLPRPRPRPTAQPRP" has measured shrunken log2 fold change not below -0.1. Thanks!
(A) criterion met

(Q) Please check the record "RRIRWRPPRLPRPRPRPNGWPRP" and state if its shrunken log2 fold change is at or above -0.1.
(A) criterion met

(Q) Form field: shrunken log2 fold change at least -0.1? Entry: "RRIRIRPPRLPRPRPRPCSKPRP"
(A) criterion not met

(Q) Hello, I need to know if "RRIRNRPPRLPRPRPRPSQNPRP" has measured shrunken log2 fold change not below -0.1. Thanks!
(A) criterion not met

(Q) Record "RRIRIRPPRLPRPRPRPADQPRP" ; criterion: shrunken log2 fold change no lower than -0.1. Met?
(A) criterion met

(Q) Determine whether measured shrunken log2 fold change meets or exceeds -0.1 for "RRIRKRPPRLPRPRPRPWELPRP"
(A) criterion met

====

Tested on: Escherichia coli TOP10
Experiment: shrunken log2 fold change of peptide-encoding DNA abundance (4.5 h post-induction vs induction); higher = less antimicrobial activity (less host growth inhibition)
Conditions: time post-induction: 4.5 h; library: site-saturation at positions 5, 18, 19, 20
assay-metric: shrunken log2 fold change
Give bare numbers.

Hi! Can you tell me shrunken log2 fold change for each of these sequences?
1. RRIRPRPPRLPRPRPRPTSSPRP
2. RRIRSRPPRLPRPRPRPWNIPRP
3. RRIRRRPPRLPRPRPRPTWEPRP
4. RRIRYRPPRLPRPRPRPTDSPRP
5. RRIRRRPPRLPRPRPRPQPYPRP

(A)
[0.0475, -0.0599, 0.0289, -0.678, -0.142]

Okay, here is my list. What is shrunken log2 fold change for each of these?
1. RRIRARPPRLPRPRPRPPSRPRP
2. RRIRKRPPRLPRPRPRPNCMPRP
3. RRIRLRPPRLPRPRPRPWSFPRP

(A)
1: 0.691; 2: -0.0663; 3: 0.018

====

Tested on: Escherichia coli TOP10
Assay: shrunken log2 fold change of peptide-encoding DNA abundance (4.5 h post-induction vs induction); higher = less antimicrobial activity (less host growth inhibition)
Details: time post-induction: 4.5 h; library: site-saturation at positions 5, 18, 19, 20
Would you please tag the item YES when its shrunken log2 fold change is 0.2 or above, and NO when it is below?

sequence	target-entity	class-assignment
RRIRCRPPRLPRPRPRPCFHPRP	Escherichia coli TOP10	NO
RRIRHRPPRLPRPRPRPRPHPRP	Escherichia coli TOP10	YES
RRIRKRPPRLPRPRPRPSLGPRP	Escherichia coli TOP10	YES
RRIRARPPRLPRPRPRPQWTPRP	Escherichia coli TOP10	NO
RRIRKRPPRLPRPRPRPAYMPRP	Escherichia coli TOP10	NO
RRIRPRPPRLPRPRPRPASWPRP	Escherichia coli TOP10	YES
RRIRSRPPRLPRPRPRPRPGPRP	Escherichia coli TOP10	YES

Please turn your attention to the following entry.
(Q) Quick check, shrunken log2 fold change >= 0.2? "RRIRPRPPRLPRPRPRPDICPRP"
(A) NO

====

Tested on: Escherichia coli TOP10;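 further: peptides expressed intracellularly from a pBAD plasmid library in pooled LB shake-flask culture, induced with 0.3% L-arabinose, DNA abundance read by NGS, three biological replicates, DESeq2 with apeglm shrinkage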
Test: shrunken log2 fold change of peptide-encoding DNA abundance (4.5 h post-induction vs induction); higher = less antimicrobial activity (less host growth inhibition)
Details: time post-induction: 4.5 h; library: site-saturation at positions 5, 18, 19, 20
For each of the sequences below, state its shrunken log2 fold change.

sequence	shrunken log2 fold change
RRIRYRPPRLPRPRPRPDTYPRP	-0.145
RRIRIRPPRLPRPRPRPHVGPRP	-0.0138
RRIRIRPPRLPRPRPRPINPPRP	-0.362
RRIRGRPPRLPRPRPRPNRLPRP	0.104
RRIRMRPPRLPRPRPRPYFAPRP	-0.296
RRIRWRPPRLPRPRPRPILRPRP	-0.0505
RRIRERPPRLPRPRPRPEGAPRP	0.592
RRIRNRPPRLPRPRPRPASDPRP	0.278
RRIRFRPPRLPRPRPRPYYFPRP	-0.706
RRIRQRPPRLPRPRPRPLREPRP	1.44

Record shrunken log2 fold change for all entries; do not skip any.
1. RRIRIRPPRLPRPRPRPMCMPRP
2. RRIRDRPPRLPRPRPRPSTIPRP
3. RRIRLRPPRLPRPRPRPQFYPRP
4. RRIRARPPRLPRPRPRPYHRPRP

(A)
-0.216
-0.295
-0.727
-0.047

For every item in the list below, what is its measured shrunken log2 fold change?
1. RRIRFRPPRLPRPRPRPVHFPRP
2. RRIRYRPPRLPRPRPRPVCPPRP
3. RRIRYRPPRLPRPRPRPEPYPRP
4. RRIRVRPPRLPRPRPRPNIFPRP

(A)
-0.263
0.101
-0.288
-0.234
